B1: BBSome complex member BBS1 (Homo sapiens), Q8NFJ9 (parent)
chain: MAAASSSDSDACGAESNEANSKWLDAHYDPMANIHTFSACLALADLHGDGEYKLVVGDLGPGGQQPRLKVLKGPLVMTESPLPALPAAAATFLMEQHEPRTPALALASGPCVYVYKNLRPYFKFSLPQLPPNPLEQDLWNQAKEDRIDPLTLKEMLESIRETAEEPLSIQSLRFLQLELSEMEAFVNQHKSNSIKRQTVITTMTTLKKNLADEDAVSCLVLGTENKELLVLDPEAFTILAKMSLPSVPVFLEVSGQFDVEFRLAAACRNGNIYILRRDSKHPKYCIELSAQPVGLIRVHKVLVVGSTQDSLHGFTHKGKKLWTVQMPAAILTMNLLEQHSRGLQAVMAGLANGEVRIYRDKALLNVIHTPDAVTSLCFGRYGREDNTLIMTTRGGGLIIKILKRTAVFVEGGSEVGPPPAQAMKLNVPRKTRLYVDQTLREREAGTAMHRAFQTDLYLLRLRAARAYLQALESSLSPLSTTAREPLKLHAVVQGLGPTFKLTLHLQNTSTTRPVLGLLVCFLYNEALYSLPRAFFKVPLLVPGLNYPLETFVESLSNKGISDIIKVLVLREGQSAPLLSAHVNMPGSEGLAAA
partner: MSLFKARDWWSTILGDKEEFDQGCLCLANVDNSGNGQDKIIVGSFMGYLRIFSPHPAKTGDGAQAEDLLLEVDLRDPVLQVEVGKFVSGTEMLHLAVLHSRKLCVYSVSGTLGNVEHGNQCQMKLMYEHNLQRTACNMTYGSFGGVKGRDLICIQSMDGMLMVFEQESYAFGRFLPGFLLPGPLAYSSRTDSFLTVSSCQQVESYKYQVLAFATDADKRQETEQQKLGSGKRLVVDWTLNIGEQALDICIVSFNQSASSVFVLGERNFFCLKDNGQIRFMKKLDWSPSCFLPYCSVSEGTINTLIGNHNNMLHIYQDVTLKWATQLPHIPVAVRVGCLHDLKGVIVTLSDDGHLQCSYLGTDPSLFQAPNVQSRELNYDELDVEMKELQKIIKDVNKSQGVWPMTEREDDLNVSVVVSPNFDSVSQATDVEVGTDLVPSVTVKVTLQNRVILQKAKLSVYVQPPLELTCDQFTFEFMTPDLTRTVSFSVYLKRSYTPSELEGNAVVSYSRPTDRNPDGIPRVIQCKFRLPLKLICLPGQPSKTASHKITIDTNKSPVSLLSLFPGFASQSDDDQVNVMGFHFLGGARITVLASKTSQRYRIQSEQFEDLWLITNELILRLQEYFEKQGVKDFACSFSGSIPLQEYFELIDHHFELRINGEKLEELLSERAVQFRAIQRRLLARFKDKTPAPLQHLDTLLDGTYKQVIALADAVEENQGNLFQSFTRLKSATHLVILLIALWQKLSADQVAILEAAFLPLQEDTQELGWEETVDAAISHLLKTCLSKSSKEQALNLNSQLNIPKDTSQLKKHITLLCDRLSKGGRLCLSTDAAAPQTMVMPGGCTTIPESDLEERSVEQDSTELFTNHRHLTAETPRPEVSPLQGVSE

# Variants of: B1
# Condition summary: with pthb1_human BBS9, Q3SYG4
Property label: effect of a mutation on the interaction

Check out these entries, answers already filled in.
Asked: // Input: "T511E" . Output its effect of a mutation on the interaction only.
Given back: with no effect

Asked: // Input: "S479K" . Output its effect of a mutation on the interaction only.
Given back: with no effect

Asked: // Input: "Q421A" . Output its effect of a mutation on the interaction only.
Given back: with no effect

Asked: // Input: "V492K" . Output its effect of a mutation on the interaction only.
Given back: with no effect

Asked: // Input: "L456K" . Output its effect of a mutation on the interaction only.
Given back: with no effect

Continuing:
Asked: // Input: "E484K" . Output its effect of a mutation on the interaction only.
Given back: with no effect

Asked: // Input: "T431A" . Output its effect of a mutation on the interaction only.
Given back: with no effect

Asked: // Input: "T480K" . Output its effect of a mutation on the interaction only.
Given back: with no effect

Asked: // Input: "L475E" . Output its effect of a mutation on the interaction only.
Given back: with no effect

Asked: // Input: "I563K" . Output its effect of a mutation on the interaction only.
Given back: with no effect

Asked: // Input: "H449K" . Output its effect of a mutation on the interaction only.
Given back: with no effect

Asked: // Input: "S473K" . Output its effect of a mutation on the interaction only.
Given back: with no effect

Asked: // Input: "R570K" . Output its effect of a mutation on the interaction only.
Given back: with no effect
